Tested on: MDA-MB-231
Experiment: kynurenine production, fold change vs DMSO IFNg/TNF control; higher = more kynurenine produced (less inhibition)
Conditions: pre-treatment time: 18 h then 24 h IFNg/TNF
Parameter: kynurenine production. Scope: all listed entries.
The answer should be written as a number, with no unit following it.

The examples below pair each entry with its known result.
{"MOLECULE": "C=C1C[C@@]2(O)O[C@@]3(C[C@H]2C(C)C)[C@@H](C)CC[C@@H]13 [Curcumol] (compound dose: 10 uM)", "kynurenine production": 0.833}
{"MOLECULE": "C=C1C(OC(C)=O)C(OC(C)=O)C(OC(=O)c2cccnc2)C(C)(C)C=CC(C)C(OC(C)=O)C2(O)CC(C)(OC(C)=O)C(OC(=O)c3ccccc3)C2C1OC(C)=O (centres undefined) [Pepluanin A] (compound dose: 10 uM)", "kynurenine production": 0.806}
{"MOLECULE": "C[C@H](CC[C@@H](O[C@@H]1O[C@H](CO[C@@H]2O[C@H](CO)[C@@H](O)[C@H](O)[C@H]2O)[C@@H](O)[C@H](O)[C@H]1O[C@@H]1O[C@H](CO)[C@@H](O)[C@H](O)[C@H]1O)C(C)(C)O)[C@H]1CC[C@@]2(C)[C@@H]3CC=C4[C@@H](CC[C@H](O[C@@H]5O[C@H](CO)[C@@H](O)[C@H](O)[C@H]5O)C4(C)C)[C@]3(C)[C@H](O)C[C@]12C [Siamenoside I] (compound dose: 10 uM)", "kynurenine production": 1.1}

Note: attention shifts to another entry.
Requested field: kynurenine production. Item: CC(C)=CCC[C@@H](C)[C@@H]1CC[C@]2(C)C3=C(CC[C@@]12C)[C@@]1(C)CC[C@H](O)C(C)(C)[C@@H]1CC3 [Euphol] (compound dose: 10 uM)
1.01

---

Entries and their cell viability
Tested on: MDA-MB-231
Experiment: cell viability relative to vehicle unstimulated control (fraction); higher = more viable cells
Conditions: pre-treatment time: 18 h then 24 h IFNg/TNF
Write no unit; give the number alone.

# example entries with known answers
{"COMPOUND": "CC1=CC23C(=O)C(C=C4COC(C)(C)OC4C24OC(C)(C)OC14)C1C(CC3C)C1(C)C (centres undefined) [Ingenol-3,4:5,20-diacetonide] (compound dose: 10 uM)", "EXPERIMENTAL SYSTEM": "MDA-MB-231", "cell viability": 1.04}
{"COMPOUND": "C/C=C(\\C)C(=O)O[C@H]1[C@H](O)[C@]2(COC(C)=O)[C@H](O)C[C@]3(C)C(=CC[C@@H]4[C@@]5(C)CC[C@H](O[C@@H]6O[C@H](C(=O)O)[C@@H](O[C@@H]7O[C@H](CO)[C@@H](O)[C@H](O)[C@H]7O)[C@H](O)[C@H]6O[C@@H]6O[C@H](CO)[C@@H](O)[C@H](O)[C@H]6O)[C@](C)(CO)[C@@H]5CC[C@]43C)[C@@H]2CC1(C)C [Isoescin IA] (compound dose: 10 uM)", "EXPERIMENTAL SYSTEM": "MDA-MB-231", "cell viability": 1}
{"COMPOUND": "C/C1=C\\C(=O)c2c(C)coc2C/C(C)=C/CC1 [Furanodienone] (compound dose: 10 uM)", "EXPERIMENTAL SYSTEM": "MDA-MB-231", "cell viability": 0.949}
{"COMPOUND": "CC(=O)O[C@@H]1CC[C@@]2(C)[C@@H](CC[C@]3(C)[C@@H]2C(=O)C=C2[C@@H]4[C@@H](C)[C@H](C)CC[C@]4(C)CC[C@]23C)[C@@]1(C)C(=O)O (compound dose: 10 uM)", "EXPERIMENTAL SYSTEM": "MDA-MB-231", "cell viability": 1.03}
{"COMPOUND": "C=C1CCC[C@]2(C)C[C@@H]3OC(=O)C(C)=C3C[C@@H]12 [Atractylenolide II] (compound dose: 10 uM)", "EXPERIMENTAL SYSTEM": "MDA-MB-231", "cell viability": 1.03}
{"COMPOUND": "CC(C)=CCC[C@](C)(O)[C@H]1CC[C@]2(C)[C@@H]1[C@H](O)C[C@@H]1[C@@]3(C)CC[C@H](O[C@@H]4O[C@H](CO)[C@@H](O)[C@H](O)[C@H]4O[C@@H]4O[C@H](CO)[C@@H](O)[C@H](O)[C@H]4O)C(C)(C)[C@@H]3CC[C@]12C [20(S)-Ginsenoside Rg3] (compound dose: 10 uM)", "EXPERIMENTAL SYSTEM": "MDA-MB-231", "cell viability": 1}

Query (compound): CC(C)=CCC[C@](C)(O[C@@H]1O[C@H](CO)[C@@H](O)[C@H](O)[C@H]1O)[C@H]1CC[C@]2(C)[C@@H]1[C@H](O)C[C@@H]1[C@@]3(C)CC[C@H](O[C@@H]4O[C@H](CO)[C@@H](O)[C@H](O)[C@H]4O[C@@H]4O[C@H](CO)[C@@H](O)[C@H](O)[C@H]4O)C(C)(C)[C@@H]3CC[C@]12C [Ginsenoside Rd] (compound dose: 10 uM) ; field requested: cell viability
1

Fill in the blank: the reported cell viability of COc1ccc2cc3[n+](cc2c1OC)CCc1cc2c(cc1-3)OCO2 [Berberine] (compound dose: 10 uM) is ____.
0.883

Endpoint output: cell viability of CC(C)=CCC[C@](C)(O[C@@H]1O[C@H](CO)[C@@H](O)[C@H](O)[C@H]1O)[C@H]1CC[C@]2(C)[C@@H]1[C@H](O)C[C@@H]1[C@@]3(C)CC[C@H](O)C(C)(C)[C@@H]3CC[C@]12C [Ginsenoside C-K] (compound dose: 10 uM) . Value?
0.969
